Give measured perturbation Mahalanobis distance for each item. Keep answers brief.
- Tested on: MCF10A
- Experimental details: perturbation Mahalanobis distance of morphological profile vs DMSO controls (Mahalanobis distance (SD units)); higher = stronger morphological change, active = 7 or more
- Condition: screen batch: Batch2_Mahalanobis_Distance; 72 h
Reply with the value as a number alone.

QUERY: Under MCF10A: perturbation Mahalanobis distance value of NC12CC3CC(CC(C3)C1)C2 [Amantadine] (19.85 µM) ?
RESULT: 3.87

QUERY: Check NN1CCOC1=O [3-Amino-2-Oxazolidinone] (49 µM) too.
RESULT: 2.76

QUERY: Check Cc1cc(C)cc(OCC2CNC(=O)O2)c1 (centres undefined) [Metaxalone] (38.4 µM) too.
RESULT: 4.58

QUERY: Check Cc1nnc(C(=O)NC(C)(C)C2=N/C(=C(\O)NCc3ccc(F)cc3)C(=O)C(=O)N2C)o1 [Raltegravir] (22.5 µM) too.
RESULT: 4.95

QUERY: Check OCCN1C[C@H](O)[C@@H](O)[C@H](O)[C@H]1CO [Miglitol] (45.4 µM) too.
RESULT: 2.1

QUERY: Check NC(N)=NCC1COC2(CCCCC2)O1 (centres undefined) [Guanadrel] (140.7 µM) too.
RESULT: 2.51

QUERY: Check O=C(O)[C@H]1OC(Oc2ccc([C@@H]3[C@@H](CC[C@@H](O)c4ccc(F)cc4)C(=O)N3c3ccc(F)cc3)cc2)[C@H](O)[C@@H](O)[C@@H]1O (some centres undefined) [Ezetimibe Glucuronide] (47 µM) too.
RESULT: 2.09

QUERY: Check NC(=O)N[C@@H](CCC(=O)O)C(=O)O [Carglumic Acid] (68.4 µM) too.
RESULT: 2.6

QUERY: Check O=C(O)P(=O)(O)O [Foscarnet] (887 µM) too.
RESULT: 2.62

QUERY: Check CC(C)(Sc1cc(C(C)(C)C)c(O)c(C(C)(C)C)c1)Sc1cc(C(C)(C)C)c(O)c(C(C)(C)C)c1 [Probucol] (12.58 µM) too.
RESULT: 3.01

QUERY: Check CCCCC(F)(F)[C@@]1(O)CC[C@H]2[C@@H](CC(=O)[C@@H]2CCCCCCC(=O)O)O1 [Lubiprostone] (64 µM) too.
RESULT: 2.48

QUERY: Check Nc1nc2ccc(OC(F)(F)F)cc2s1 [Riluzole] (4.3 µM) too.
RESULT: 3.82

QUERY: Check CC(=O)O.C[C@H](N)C(=O)O.NCCCC[C@H](N)C(=O)O.N[C@@H](CCC(=O)O)C(=O)O.N[C@@H](Cc1ccc(O)cc1)C(=O)O [Glatiramer Acetate] (50 µM) too.
RESULT: 2.3

QUERY: Check CC(=O)Nc1nnc(S(N)(=O)=O)s1 [Acetazolamide] (90 µM) too.
RESULT: 2.44

###

Give measured perturbation Mahalanobis distance for each item. Keep answers brief.
- Test system: MCF10A
- Experimental details: perturbation Mahalanobis distance of morphological profile vs DMSO controls (Mahalanobis distance (SD units)); higher = stronger morphological change, active = 7 or more
- Condition: screen batch: Batch1_Mahalanobis_Distance; 72 h

QUERY: Under MCF10A: perturbation Mahalanobis distance value of CC(C)NCC(O)COc1ccc(CC(N)=O)cc1 (stereo not drawn) [Atenolol] (18.8 µM) ?
RESULT: 2.37 (inactive)

QUERY: Check CN1C(=O)CC(c2ccccc2)C1=O (stereo not drawn) [Phensuximide] (52.9 µM) too.
RESULT: 3.2 (inactive)

QUERY: Check COc1cc(C(=O)NCc2ccc(OCCN(C)C)cc2)cc(OC)c1OC [Trimethobenzamide] (257.426.762 µM) too.
RESULT: 2.9 (inactive)

QUERY: Check C#C[C@]1(O)CC[C@H]2[C@@H]3CCc4cc(O)ccc4[C@H]3CC[C@@]21C [Ethinyl Estradiol] (23 µM) too.
RESULT: 5.9 (inactive)

QUERY: Check CN[C@H]1CC[C@@H](c2ccc(Cl)c(Cl)c2)c2ccccc21 [Sertraline] (3.3 µM) too.
RESULT: 2.81 (inactive)

QUERY: Check O=C(O)c1cnccn1 [Pyrazinoic Acid] (604.4 µM) too.
RESULT: 2.79 (inactive)

QUERY: Check CCCCNc1cc(C(=O)O)cc(S(N)(=O)=O)c1Oc1ccccc1 [Bumetanide] (1 µM) too.
RESULT: 3.62 (inactive)

QUERY: Check COc1cc(C)c(/C=C/C(C)=C/C=C/C(C)=C/C(=O)O)c(C)c1C [Acitretin] (7.7 µM) too.
RESULT: 6.19 (inactive)

###

Give measured perturbation Mahalanobis distance for each item. Keep answers brief.
- System: MCF10A
- Experimental details: perturbation Mahalanobis distance of morphological profile vs DMSO controls (Mahalanobis distance (SD units)); higher = stronger morphological change, active = 7 or more
- Condition: screen batch: Batch2_Mahalanobis_Distance; 72 h
Reply with the value as a number alone.

QUERY: Please look up its perturbation Mahalanobis distance: CCc1c2c(nc3ccc(OC(=O)N4CCC(N5CCCCC5)CC4)cc13)-c1cc3c(c(=O)n1C2)COC(=O)[C@]3(O)CC [Irinotecan] (16.8 µM)
RESULT: 16.6

QUERY: Check Cc1nc(-c2ccc(OCC(C)C)c(C#N)c2)sc1C(=O)O [Febuxostat] (178 µM) too.
RESULT: 3.22

QUERY: Check CC(N=C(NC#N)Nc1ccncc1)C(C)(C)C (centres undefined) [Pinacidil] (8.3 µM) too.
RESULT: 4.16

QUERY: Check O=c1[nH]cc(F)c(=O)[nH]1 [5-Fluorouracil] (2.5 µM) too.
RESULT: 16.5

###

- Test system: MCF10A
- Experimental details: perturbation Mahalanobis distance of morphological profile vs DMSO controls (Mahalanobis distance (SD units)); higher = stronger morphological change, active = 7 or more
- Condition: screen batch: Batch2_Mahalanobis_Distance; 72 h
So basically: perturbation Mahalanobis distance at 3 or higher? That is Met. Lower than 3? That is Not met.

QUERY: For this compound, is measured perturbation Mahalanobis distance 3 or higher? CCN(CCO)CCCC(C)Nc1ccnc2cc(Cl)ccc12 (stereo not given) [Hydroxychloroquine] (1.5 µM)
RESULT: Not met

QUERY: Check CCc1c2c(nc3ccc(O)cc13)-c1cc3c(c(=O)n1C2)COC(=O)[C@]3(O)CC [7-Ethyl-10-Hydroxy-Camptothecin] (16.78 µM) too.
RESULT: Not met

QUERY: Check O=C1C(CCS(=O)c2ccccc2)C(=O)N(c2ccccc2)N1c1ccccc1 (racemic) [(+/-)-Sulfinpyrazone] (41.84 µM) too.
RESULT: Not met

QUERY: Check Nc1ccn([C@H]2CC[C@@H](CO)O2)c(=O)n1 [Zalcitabine] (2.4 µM) too.
RESULT: Met

QUERY: Check N=C(N)c1ccc(OCCCCCOc2ccc(C(=N)N)cc2)cc1 [Pentamidine] (7.4 µM) too.
RESULT: Met

QUERY: Check CN1CCN(CCCN2c3ccccc3Sc3ccc(C(F)(F)F)cc32)CC1 [Trifluoperazine] (0.12 µM) too.
RESULT: Met

QUERY: Check O=C1CN(/N=C/c2ccc(-c3ccc([N+](=O)[O-])cc3)o2)C(=O)N1 [Dantrolene] (23.9 µM) too.
RESULT: Met

QUERY: Check S=c1nc[nH]c2nc[nH]c12 [6-Mercaptopurine] (9.9 µM) too.
RESULT: Met

QUERY: Check OCC(O)COc1ccc(Cl)cc1 (stereo not given) [Chlorphenesin] (83.9 µM) too.
RESULT: Met

QUERY: Check C#C[C@]1(O)CC[C@H]2[C@@H]3CCC4=CC(=O)CC[C@@H]4[C@H]3CC[C@@]21CC [Levonorgestrel] (0.24 µM) too.
RESULT: Not met

QUERY: Check NC(=O)[C@@H]1CSSCCC(=O)N[C@@H](CCCCN=C(N)N)C(=O)NCC(=O)N[C@@H](CC(=O)O)C(=O)N[C@@H](Cc2c[nH]c3ccccc23)C(=O)N2CCC[C@H]2C(=O)N1 [Eptifibatide] (5.3 µM) too.
RESULT: Not met

QUERY: Check COc1cc(Cc2cnc(N)nc2N)cc(OC)c1OC [Trimethoprim] (43.1 µM) too.
RESULT: Met

QUERY: Check N[C@@H](CC(=O)N1CCn2c(nnc2C(F)(F)F)C1)Cc1cc(F)c(F)cc1F [Sitagliptin] (4.8 µM) too.
RESULT: Not met

QUERY: Check CNS(=O)(=O)Cc1ccc2[nH]cc(CCN(C)C)c2c1 [Sumatriptan] (1 µM) too.
RESULT: Met

###

- System: MCF10A
- Experimental details: perturbation Mahalanobis distance of morphological profile vs DMSO controls (Mahalanobis distance (SD units)); higher = stronger morphological change, active = 7 or more
- Condition: screen batch: Batch2_Mahalanobis_Distance; 72 h
Give measured perturbation Mahalanobis distance for each item. Keep answers brief.

QUERY: Please look up its perturbation Mahalanobis distance: CCN(CC)C(=O)N1CCN(C)CC1 [Diethylcarbamazine] (6.3 µM)
RESULT: 2.16 (inactive)

QUERY: Check CC1CNc2c(cccc2S(=O)(=O)N[C@@H](CCCN=C(N)N)C(=O)N2CC[C@@H](C)C[C@@H]2C(=O)O)C1 (some centres not stated) [Argatroban] (6.9 µM) too.
RESULT: 2.75 (inactive)

QUERY: Check CCCCN(CCCC)CCC(O)c1cc2c(Cl)cc(Cl)cc2c2cc(C(F)(F)F)ccc12 (configuration not stated) [Halofantrine] (63.9 µM) too.
RESULT: 2.57 (inactive)

QUERY: Check Cc1ccc(Nc2nccc(N(C)c3ccc4c(C)n(C)nc4c3)n2)cc1S(N)(=O)=O [Pazopanib] (132.6 µM) too.
RESULT: 2.85 (inactive)

QUERY: Check CN1C(=O)CC(c2ccccc2)C1=O (configuration not stated) [Phensuximide] (52.9 µM) too.
RESULT: 2.78 (inactive)

QUERY: Check NNc1nncc2ccccc12 [Hydralazine] (15.6 µM) too.
RESULT: 3.91 (inactive)

QUERY: Check C[C@@H](O[C@@H]1OCCN(Cc2nc(=O)[nH][nH]2)[C@@H]1c1ccc(F)cc1)c1cc(C(F)(F)F)cc(C(F)(F)F)c1 [Aprepitant] (20.7 µM) too.
RESULT: 3.18 (inactive)

QUERY: Check CCN(CC)Cc1cc(Nc2ccnc3cc(Cl)ccc23)ccc1O [Amodiaquine] (0.7 µM) too.
RESULT: 2.97 (inactive)

QUERY: Check CC1(C)N=C(N)N=C(N)N1c1ccc(Cl)cc1 [Cycloguanil] (3.4 µM) too.
RESULT: 2.22 (inactive)

QUERY: Check C#C[C@]1(O)CC[C@H]2[C@@H]3CCc4cc(O)ccc4[C@H]3CC[C@@]21C [Ethinyl Estradiol] (23 µM) too.
RESULT: 3.63 (inactive)

QUERY: Check CNC[C@H](O)c1ccc(O)c(O)c1 [Epinephrine] (27.3 µM) too.
RESULT: 2.89 (inactive)

QUERY: Check CC(=O)c1ccc(S(=O)(=O)NC(=O)NC2CCCCC2)cc1 [Acetohexamide] (10 µM) too.
RESULT: 4.7 (inactive)

QUERY: Check CC(C)N=C(N)/N=C(\N)Nc1ccc(Cl)cc1 [Proguanil] (3 µM) too.
RESULT: 3.24 (inactive)

QUERY: Check O=C(Nc1ncc([N+](=O)[O-])s1)c1ccccc1O [Tizoxanide] (48.8 µM) too.
RESULT: 3 (inactive)

QUERY: Check CC12CCC(=O)C=C1C=CC1C2CCC2(C)C1CCC21CCC(=O)O1 (configuration not stated) [Canrenone] (3 µM) too.
RESULT: 3.02 (inactive)

QUERY: Check CC(c1cc2ccccc2s1)N(O)C(N)=O (configuration not stated) [Zileuton] (105.4 µM) too.
RESULT: 5.1 (inactive)

QUERY: Check C[N+](C)(C)CCOC(=O)CCC(=O)OCC[N+](C)(C)C [Succinylcholine Chloride] (12.65 µM) too.
RESULT: 2.84 (inactive)
